Assay: clinical
Conditions: human, in vivo, iv
The entries below are paired with their reported MRT.

Molecule	MRT, h
CCCC(C)(COC(N)=O)COC(N)=O [MEPROBAMATE]	19
COc1cccc2c1C(=O)c1c(O)c3c(c(O)c1C2=O)C[C@@](O)(C(=O)CO)C[C@@H]3O[C@H]1C[C@H](N)[C@H](O)[C@H](C)O1 [DOXORUBICIN]	24
CCC(CC)COC(C(=O)OCCN(C)C)(c1ccccc1)c1ccccc1 [DENAVERINE]	21
O=C1Nc2ccc(Cl)cc2C(c2ccccc2Cl)=NC1O (stereo not drawn) [LORAZEPAM]	22
O=c1n(CCCN2CCN(c3cccc(Cl)c3)CC2)nc2ccccn12 [TRAZODONE]	6.2
CC/C=C\C/C=C\C/C=C\C/C=C\C/C=C\C/C=C/CCC(=O)O[C@@H](C(=O)O[C@H]1C[C@@]2(O)[C@@H](OC(=O)c3ccccc3)C3[C@](C)(C(=O)[C@H](OC(C)=O)C(=C1C)C2(C)C)[C@@H](O)C[C@H]1OC[C@@]31OC(C)=O)[C@@H](NC(=O)c1ccccc1)c1ccccc1 (stereo partly drawn) [DHA PACLITAXEL]	45
CC[C@@]1(O)C(=O)OCc2c1cc1n(c2=O)Cc2cc3c(N)cccc3nc2-1 [9-AMINOCAMPTOTHECIN]	5.6
CC=CC1=C(C(=O)O)N2C(=O)[C@@H](NC(=O)[C@H](N)c3ccc(O)cc3)[C@H]2SC1 [CEFPROZIL]	1.2
Cc1[nH]cnc1CN1CCc2c(c3ccccc3n2C)C1=O [ALOSETRON]	2.1
C[C@H](CCc1ccccc1)NC[C@H](O)c1ccc(O)c(C(N)=O)c1 [DILEVALOL]	2.8
CN(C)C(=N)N=C(N)N [METFORMIN]	1.4
CN1C(=O)[C@H](O)C[C@H]1c1cccnc1	7.9
N=C(N)N1CCC[C@@H](CNC(=O)C[C@H](NS(=O)(=O)c2ccc3ccccc3c2)C(=O)N(CC(=O)O)C2CC2)C1 [NAPSAGATRAN ANHYDROUS]	0.94

----------
Test: clinical
Settings: human, in vivo, iv, Vdss
Readout Name: Vd

Molecule	Readout Name	Observed
CN[C@@H]1CCc2[nH]c3ccc(C(N)=O)cc3c2C1 [FROVATRIPTAN]	Vd	3.6 L/kg
Cn1c(=O)c2c(ncn2CC(O)CO)n(C)c1=O (stereo unspecified) [DYPHYLLINE]	Vd	0.42 L/kg
Cc1nc2c([nH]1)-c1ccccc1N(C(=O)c1ccc(NC(=O)c3ccccc3-c3ccccc3)cc1)CC2 [CONIVAPTAN]	Vd	0.76 L/kg
NNc1nncc2ccccc12 [HYDRALAZINE]	Vd	1.5 L/kg
CC1(C)S[C@@H]2[C@H](NC(=O)[C@H](NC(=O)N3CCNC3=O)c3ccccc3)C(=O)N2[C@H]1C(=O)O [AZLOCILLIN]	Vd	0.26 L/kg
CSc1ccc(C(=O)c2[nH]c(=O)[nH]c2C)cc1 [ENOXIMONE]	Vd	1.8 L/kg
CC[C@H]1OC(=O)[C@H](C)C(=O)[C@H](C)[C@@H](O[C@@H]2O[C@H](C)C[C@H](N(C)C)[C@H]2O)[C@](C)(OC)C[C@@H](C)C(=O)[C@H](C)[C@H]2N(CCCCn3cnc(-c4cccnc4)c3)C(=O)O[C@]12C [TELITHROMYCIN]	Vd	3 L/kg
COc1cc([C@@H]2c3cc4c(cc3[C@@H](O[C@@H]3O[C@@H]5CO[C@@H](C)O[C@H]5[C@H](O)[C@H]3O)[C@H]3COC(=O)[C@H]23)OCO4)cc(OC)c1O [ETOPOSIDE]	Vd	0.18 L/kg
O=C1c2cccc3c2[C@H](CCC3)CN1[C@@H]1CN2CCC1CC2 [PALONOSETRON]	Vd	6.3 L/kg
Cc1cn([C@H]2C=C[C@@H](CO)O2)c(=O)[nH]c1=O [STAVUDINE]	Vd	0.67 L/kg
COCC(=O)Nc1c(I)c(C(=O)NCC(O)CO)c(I)c(C(=O)N(C)CC(O)CO)c1I (stereo unspecified) [IOPROMIDE]	Vd	0.22 L/kg
Nc1ccc(S(=O)(=O)Nc2ncccn2)cc1 [SULFADIAZINE]	Vd	0.29 L/kg
C#C[C@]1(O)CC[C@H]2[C@@H]3CCc4cc(O)ccc4[C@H]3CC[C@@]21C [ETHINYL ESTRADIOL]	Vd	4.3 L/kg
Nc1cc(-c2ccncc2)c[nH]c1=O [INAMRINONE]	Vd	1.3 L/kg
C=C[C@@]1(O)C[N+]2(C)CC[C@H]1C[C@@H]2[C@@H](O)c1ccnc2ccc(OC)cc12	Vd	6.8 L/kg
COC(=O)C1=C(C)NC(C)=C(C(=O)OCCN(C)Cc2ccccc2)C1c1cccc([N+](=O)[O-])c1 (stereo unspecified) [NICARDIPINE]	Vd	1 L/kg
COc1cc2c3cc1Oc1cc(ccc1O)C[C@@H]1c4c(cc(OC)c(O)c4Oc4ccc(cc4)C[C@@H]3N(C)CC2)CC[N+]1(C)C.[Cl-]	Vd	0.45 L/kg
COc1ccc(CCNCC(O)COc2cccc(C)c2)cc1OC (stereo unspecified) [BEVANTOLOL]	Vd	0.67 L/kg
CC(C)(C)NC[C@H](O)COc1nsnc1N1CCOCC1 [TIMOLOL]	Vd	1.5 L/kg
C[N+](C)([O-])CCCN1c2ccccc2CCc2ccccc21 [IMIPRAMINOXIDE]	Vd	1.9 L/kg
C[C@H](N[C@@H](CCc1ccccc1)C(=O)O)C(=O)N1CCC[C@H]1C(=O)O [ENALAPRILAT ANHYDROUS]	Vd	0.38 L/kg
CCCCNc1cc(C(=O)O)cc(S(N)(=O)=O)c1Oc1ccccc1 [BUMETANIDE]	Vd	0.16 L/kg
CCC[C@@H]1C[C@@H](C(=O)N[C@@H]([C@H]2O[C@H](SC)[C@H](O)[C@@H](O)[C@H]2O)[C@@H](C)O)N(C)C1 [LINCOMYCIN]	Vd	1 L/kg
CCCC(=O)OCOC(=O)C1=C(C)NC(C)=C(C(=O)OC)C1c1cccc(Cl)c1Cl (stereo unspecified) [CLEVIDIPINE]	Vd	0.58 L/kg
CN(C)/N=N/c1[nH]cnc1C(N)=O [DACARBAZINE]	Vd	1.2 L/kg
CCOC(=O)C1(c2ccccc2)CCC=CC1N(C)C (stereo unspecified) [TILIDINE]	Vd	4 L/kg
COc1ccc2c(c1)N(C[C@H](C)CN(C)C)c1ccccc1S2 [LEVOMEPROMAZINE]	Vd	12 L/kg
COc1ccc(Cl)cc1C(=O)NCCc1ccc(S(=O)(=O)NC(=O)NC2CCCCC2)cc1 [GLYBURIDE]	Vd	0.08 L/kg
CCCCc1nc(Cl)c(CO)n1Cc1ccc(-c2ccccc2-c2nn[nH]n2)cc1 [LOSARTAN]	Vd	0.37 L/kg
CC1(C)S[C@@H]2[C@H](NC(=O)[C@H](N)c3ccc(O)cc3)C(=O)N2[C@H]1C(=O)O [AMOXICILLIN]	Vd	0.25 L/kg
O=C1CCc2ccc(OCCCCN3CCN(c4cccc(Cl)c4Cl)CC3)cc2N1 [ARIPIPRAZOLE]	Vd	4.9 L/kg
